target: wild-type EGFR expressed on cells (human), P00533; test: flow cytometry, A431 cells; settings: remark: other sources report otherwise
Property Name: % positive (%)
Give bare numbers, in %.

Prompt: Any idea what its % positive is? The binder is 14C11 (antibody, V domains shown) VH: QVTLKESGPVLVKPTETLTLTCTVSGFSLNNARMGVSWIRQPPGKALEWFAHIFSTDEKSFRTSLRSRLTLSKDTSKSQVVLTMTNMDPVDTATYYCARDSSNYEGYFDYWGQGILVTVSS VL: EIVMTQSPATLSVSPGERATLSCRASQSVSNNLAWYQQKPGQAPRLLIYGASTRATGVPARFSGSDSGTEFSLTISSLQSEDFAVYFCQQYKDWPFTFGPGTKVEIK
Response: 0.8
